Where these numbers come from: PubChem BioAssay (NCI)

- Tested on: EKVX NSCLC
- RUN_DESCRIPTION: NCI tumour cell line growth inhibition, 48 h
Give TGI for every item shown.

Query (molecule): CONC(C)=O ; field requested: TGI > 100 µM

Query (molecule): CN(C)CCCNC(=O)CCNC(=O)c1cc(NC(=O)c2cc(NC(=O)c3cc(NC(=O)c4nccn4C)cn3C)cn2C)cn1C ; field requested: TGI > 100 µM

Query (molecule): O=C(O)c1cc2c(cc1CC(Cc1ccc3c(c1)CCCC3)C(=O)O)CCCC2 (stereo not given) ; field requested: TGI > 100 µM

Query (molecule): CC1(C)CC[C@]2(C(=O)O)CC[C@]3(C)C(=CC[C@@H]4[C@@]5(C)C[C@H](O)[C@H](O)[C@@](C)(C(=O)O)[C@@H]5CC[C@]43C)[C@@H]2C1 ; field requested: TGI > 100 µM

Query (molecule): C#C/C=C\CCCCCCCCCCCCCC/C=C\CCCCC#CC(O)C#CCCCC/C=C\CCCCCC/C=C/C(O)C#C (stereo not given) ; field requested: TGI 35.9 µM

---

- Test system: LOX IMVI melanoma
- RUN_DESCRIPTION: NCI tumour cell line growth inhibition, 48 h
EXPERIMENTAL_ENDPOINT: TGI

Query (compound): CCN(CC)C1CCC(C2c3cc4c(cc3OC(N3CCOCC3)C2C)OCO4)CC1 (stereo unspecified) ; field requested: TGI > 100 µM

Query (compound): Cc1c(Cl)nc(Cl)nc1Cl ; field requested: TGI 1.34 µM

Query (compound): COc1ccc(Cn2cc3c(c2-c2ccccc2)CCc2cnoc2-3)cc1OC ; field requested: TGI > 100 µM

Query (compound): O=C(OCc1ccc([N+](=O)[O-])cc1)N1c2ccccc2[C@@]23O[C@]24CCC[C@H]3C#C/C=C\C#C[C@H]14 ; field requested: TGI > 100 µM

Query (compound): COc1ccc2c(O)c(/C=C3\N=Nc4ccccc43)oc2c1C[C@@H]1CCNC[C@H]1F ; field requested: TGI 2.99 µM

Query (compound): Clc1ccc(C(Cc2cccc(Cl)c2)c2c(Cl)nc(N3CCNCC3)nc2Cl)cc1 (stereo unspecified) ; field requested: TGI 25.5 µM

Query (compound): COc1ccc2c(c1)CC[C@@H]1[C@@H]2CC[C@]2(C)c3c(cc(C(=O)O)c4sccc34)C[C@@H]12 ; field requested: TGI 42.8 µM

Query (compound): NNC(=O)CCSc1ccccc1 ; field requested: TGI > 100 µM

Query (compound): C#CCN(Cc1nc2cc(C(F)(F)F)ccc2nc1-c1ccccc1)c1ccc(C)cc1 ; field requested: TGI > 48.5 µM

Query (compound): Cc1occc1C(=S)Nc1ccc(Cl)c(/C=N/OC(C)(C)C)c1 ; field requested: TGI 29.2 µM

Query (compound): COc1ccc(C(O)(c2ccccc2)c2nccc3ccccc23)cc1 (stereo unspecified) ; field requested: TGI > 100 µM

Query (compound): CCOC(=O)C1C(C)C2(C#N)C(=N)OC1(C)C2(C#N)C#N (stereo unspecified) ; field requested: TGI 67.1 µM

Query (compound): COc1ccc2cc(C(=O)/C=C/c3ccc(N(C)C)cc3)ccc2c1 ; field requested: TGI > 100 µM

Query (compound): CCOC(=O)Nc1nc2ccc(Br)cc2s1 ; field requested: TGI > 50 µM

Query (compound): CC(N)(/C=C/c1ccccc1)C(=O)O (stereo unspecified) ; field requested: TGI > 100 µM

Query (compound): COc1cc2c(c(OC)c1OC)-c1ccc(OC)c(=O)cc1[C@@H](NC(C)=O)CC2 ; field requested: TGI > 100 µM

Query (compound): O=C(O)CCc1nc2ccccc2[nH]1 ; field requested: TGI > 100 µM

Query (compound): N#C[Se]CCN1C(=O)C2C(C1=O)[C@H]1C=C[C@@H]2S1 (stereo partly specified) ; field requested: TGI 4.12 µM

Query (compound): COc1ccc(OC)c(C2CCc3c(cnc4nc(N)nc(N)c34)C2)c1 (stereo unspecified) ; field requested: TGI 15.5 µM

Query (compound): Cc1cc(O)cc(C)c1/C=C/c1cncc(C(N)=O)c1 ; field requested: TGI > 25 µM

Query (compound): CC(=O)C1Cn2c(=O)c3cc4ccccc4cc3c(=O)n2C=C1C (stereo unspecified) ; field requested: TGI > 100 µM

Query (compound): COC(=O)C1=C(OC(=O)/C(=C/c2ccccc2)c2ccc(Cl)cc2)C(C(=O)OC)[C@@]2(O)[C@@H](C(=O)OC)[C@H](C)C[C@@H]1[C@@H]2C(=O)OC (stereo partly specified) ; field requested: TGI > 100 µM

Query (compound): CN(C)CCCNc1ncnc2c1ncn2C1OC(CO)C(O)C1O (stereo unspecified) ; field requested: TGI > 100 µM

Query (compound): NC(=O)/C(=N\NC(=O)C[n+]1ccccc1)C1NC(=O)NC1=O (stereo unspecified) ; field requested: TGI > 100 µM

Query (compound): O=c1/c(=C/c2ccc([N+](=O)[O-])o2)sc2n1[C@@H](c1ccc(Cl)cc1)C=C(c1cc(F)c(Cl)cc1Cl)N=2 ; field requested: TGI 33.6 µM

Query (compound): CNC(=O)NCCN1CC2CCC(CC2)C1 ; field requested: TGI > 10 µM

Query (compound): O[C@H]1[C@H](O)[C@@H](O)[C@@]2(O)CC[C@@H]1N2 ; field requested: TGI > 100 µM

Query (compound): O=C(O)c1nc2ccc(C(F)(F)F)cc2nc1NCc1ccc(Cl)c(Cl)c1 ; field requested: TGI 29.8 µM

Query (compound): c1ccc2cc(NCNc3ccc4ccccc4c3)ccc2c1 ; field requested: TGI 25.9 µM

Query (compound): CCCCCCCCC/C(=N\NC(=O)c1ccncc1)c1ccc(O)c(O)c1O ; field requested: TGI 11.9 µM

Query (compound): CC1(C)CC[C@]2(C(=O)O)CC[C@]3(C)C(=CC[C@@H]4[C@@]5(C)C[C@H](O)[C@H](O)[C@@](C)(C(=O)O)[C@@H]5CC[C@]43C)[C@@H]2C1 ; field requested: TGI > 100 µM

Query (compound): C/C(=N\NC(=S)NCCCCNC(=S)N/N=C(\C)c1ccccn1)c1ccccc1 ; field requested: TGI 14.3 µM

Query (compound): COC(=O)C(C)(C)[C@@H]1OC(=O)N(S(=O)(=O)c2c(C)cc(C)cc2C)[C@H]1C(C)C ; field requested: TGI > 100 µM

Query (compound): Cc1nc(-c2nc(-c3ccc(OC(F)(F)F)cc3)no2)nn1Cc1cccc(N2CCC(S(C)(=O)=O)CC2)c1 ; field requested: TGI > 100 µM

Query (compound): Cc1ccc([N+](=O)[O-])cc1S(=O)(=O)Nc1ccc(C2=NOC(c3cccs3)C2)cc1 (stereo unspecified) ; field requested: TGI 23.6 µM

Query (compound): CC(C)(C)OC(=O)NC(Cc1ccc(O)cn1)C(=O)O (stereo unspecified) ; field requested: TGI > 100 µM

Query (compound): C=C1C(=O)O[C@H]2[C@H]1CC/C(C=Nc1c(N)cc(C(F)(F)F)cc1C(F)(F)F)=C\CC[C@@]1(C)O[C@@H]21 ; field requested: TGI 2.3 µM

Query (compound): Cc1ccc(NC(=O)c2cc3ccccc3c(N=Nc3cc(S(=O)(=O)O)ccc3O)c2O)c(C)c1 ; field requested: TGI > 100 µM

Query (compound): CCCn1cc2c(SC)nc(SC)nc2n1 ; field requested: TGI > 100 µM

Query (compound): N#Cc1c(N)n2c(nc1=Nc1ccc(Cl)cc1)sc1cc(Cl)ccc12 ; field requested: TGI > 100 µM

Query (compound): C(=N\Nc1ccccc1)/c1nc2ccccc2nc1/C=N/Nc1ccccc1 ; field requested: TGI 22.1 µM

---

- System: SR leukemia
- RUN_DESCRIPTION: NCI tumour cell line growth inhibition, 48 h; in the data active = GI50 below about 0.43 µM; inactive = the rest
Where a SMILES comes first, the peptide text is derived from it. Bridges are numbered along the chain shown (N, C = ends). [ ]: non-standard residue; d: D form. The star is where a group is joined. ξ: configuration not given here. ξDab(CH2SO3H) = NC(CCNCS(=O)(=O)O)C(=O)O; Heptanoyl(6-Me) = CC(C)CCCCC(=O)*; Dab = NCC[CH](N)C(=O)O
One label from this list, please: YES (active), NO (inactive)

What did the test return for N=C(N)SCc1c2ccccc2c(CSC(=N)N)c2ccccc12 ? YES

What did the test return for CCOC(=O)Nc1nc2ccc(Br)cc2s1 ? NO

What did the test return for N#Cc1c(N)n2c(nc1=Nc1ccc(Cl)cc1)sc1cc(Cl)ccc12 ? NO

What did the test return for CCC(C)C1NC(=O)C(CCNCS(=O)(=O)O)NC(=O)C(NC(=O)C(CCNCS(=O)(=O)O)NC(=O)C(NC(=O)C(CCNCS(=O)(=O)O)NC(=O)CCCCC(C)C)C(C)O)CCNC(=O)C(C(C)O)NC(=O)C(CCNCS(=O)(=O)O)NC(=O)C(CCNCS(=O)(=O)O)NC(=O)C(C(C)CC)NC1=O (stereo unspecified) ({Heptanoyl(6-Me)}-[ξDab(CH2SO3H)]T[ξDab(CH2SO3H)][Dab][ξDab(CH2SO3H)]II[ξDab(CH2SO3H)][ξDab(CH2SO3H)]T; lactam 4-C; configuration not given here) ? NO

What did the test return for Clc1ccc(Nc2ccnc(N3CCN(c4ccnc5cc(Cl)ccc45)CC3)n2)cc1 ? NO

What did the test return for CCCc1cc(=O)n2c(C(=O)Nc3cccc(C(=O)OCC)c3)c(C(=O)Nc3ccc(F)cc3)sc2n1 ? NO
